experiment: qHTS assay to test for compound auto fluorescence at 590 nm (red) in HepG2 cell free culture (AID 720684); conditions: cell-free medium autofluorescence, red 540/590 nm; series mostly up to 91.3 µM; further: on the % scale 0 is the no-effect control and ±100 the full control effect
Calls of active or inactive are those of the source. The call rests on the fitted dose curve; in most records, active means well fitted curve in the direction sought with a large enough effect in the repeat runs; inconclusive means weak or mixed curves; inactive means flat fitted curve, though single readings scatter.
property_name: fluorescence, % of Rose Bengal

Known fluorescence, % of Rose Bengal results, listed for orientation:
| molecule | fluorescence, % of Rose Bengal |
| --- | --- |
| O=c1[nH]c2ccc(S(=O)CCN3CCC(Cc4ccc(F)cc4)CC3)cc2o1 (stereo not given) | inactive |
| CCCCCCCCCCCC(=O)[O][Sn]([CH2]CCC)([CH2]CCC)[O]C(=O)CCCCCCCCCCC | inactive |
| COc1cc2c(cc1OC)-c1cc(=Nc3c(C)cc(C)cc3C)n(C)c(=O)n1CC2 | inactive |
| CC(=O)Oc1ccc2c(c1)CC[C@@H]1[C@@H]2CC[C@]2(C)[C@@H](O)CC[C@@H]12 | inactive |
| O=C(OCCOCCO)c1ccccc1Nc1cccc(C(F)(F)F)c1 | -0.0242% [at 18.6 µM] (inactive) |
| C/C=C/C=C/CCCCCCCO | inactive |
| CCCCC(=O)O[C@]1(C(=O)CO)CC[C@H]2[C@@H]3CCC4=CC(=O)CC[C@]4(C)[C@H]3[C@@H](O)C[C@@]21C | inactive |
| Nc1nc(Cl)nc2c1ncn2[C@@H]1O[C@H](CO)[C@@H](O)[C@@H]1F | inactive |

Provide reported fluorescence, % of Rose Bengal for each item, in the same order as listed.
1. CCCCCCCCSCCO
2. C[Si]1(C)O[Si](C)(C)O[Si](C)(C)O1
3. CCC(=O)OC/C=C/c1ccccc1

Result:
1: inactive; 2: inactive; 3: inactive

Provide reported fluorescence, % of Rose Bengal for each item, in the same order as listed.
1. Cc1ccc(S)cc1
2. C=CCCCCCCCCCCCCCCCC
3. CC(=O)[C@H]1CC[C@H]2[C@@H]3C=CC4=CC(=O)CC[C@@]4(C)[C@@H]3CC[C@]12C
4. O=C(O)c1cccc(O)c1

Result:
1. inactive
2. 0.0296% [at 3.72 µM] (inactive)
3. -0.458% [at 18.6 µM] (inactive)
4. inactive

###

Assay: qHTS assay to test for compound auto fluorescence at 460 nm (blue) in HepG2 cell free culture (AID 720685); further: on the % scale 0 is the no-effect control and ±100 the full control effect
Details: Cell-free culture medium, blue autofluorescence 405/460 nm; series mostly up to 91.3 µM
Excerpt: U.S. Tox21 Program National Center for Advancing Translational Sciences [NCATS] NIH Chemical Genomics Center [NCGC] U.S. Environmental Protection Agency [EPA] National Institutes of Environmental Health Sciences [NIEHS] National Toxicology Program [NTP] U.S. Food and Drug Administration [FDA] Tox21 Assay Overview: Compound auto fluorescence often interferes with screening of the compound library against various biological targets and signaling pathways. […] This assay includes the blue fluorescence data. […]
Active and inactive are the calls of the source. The call rests on the fitted dose curve; in most records, active means well fitted curve in the direction sought with a large enough effect in the repeat runs; inconclusive means weak or mixed curves; inactive means flat fitted curve, though single readings scatter.
property_name: fluorescence, % of fluorescent control

Known fluorescence, % of fluorescent control results, listed for orientation:
| compound | fluorescence, % of fluorescent control |
| --- | --- |
| CNC(=O)N(c1ccccc1)c1ccccc1 | inactive |
| CC(=O)[C@H]1CC[C@H]2[C@@H]3C[C@H](C)C4=CC(=O)CC[C@]4(C)[C@H]3[C@@H](O)C[C@]12C | 0.0471% [at 18.6 µM] (inactive) |
| CC(=O)Nc1ccc(N)cc1 | inactive |
| CC(C)(O)c1ccccc1CC[C@@H](SCC1(CC(=O)O)CC1)c1cccc(/C=C/c2ccc3ccc(Cl)cc3n2)c1 | inactive |
| CCOc1cc(N)c(Cl)cc1C(=O)NCC1CN(Cc2ccc(F)cc2)CCO1 (stereo unspecified) | inactive |

Provide reported fluorescence, % of fluorescent control for each item, in the same order as listed.
1. O=C(CCCN1CCN(c2ccc(F)cc2)CC1)NC1c2ccccc2CSc2ccccc21 (stereo unspecified)
2. c1cc[c]([Bi]([c]2ccccc2)[c]2ccccc2)cc1
3. C(=C\c1ccccc1)/CN1CCN(C(c2ccccc2)c2ccccc2)CC1
4. CCN(CC)CCNC(=O)c1ccc(NC(C)=O)cc1
5. COCCOC
6. O=S1OCCO1

Result:
inactive
inactive
0.108% [at 18.6 µM] (inactive)
inactive
inactive
inactive

###

experiment: qHTS RealTime-Glo MT Cell Viability Assay in HepG2 cells - 40 hour (AID 1224870); conditions: RealTime-Glo luminescence; series mostly up to 76.8 µM; further: nearly all actives have a fitted effect of over 50% in size
Records with an inconclusive call do not appear. The source made the active and inactive calls. Calls come from the whole dose curve; as a rule, active = well fitted cell-killing curve with a large enough effect in the repeat runs; inconclusive = weak or mixed curves, or effect the other way; inactive = flat fitted curve, though single readings scatter.
Form entry, call: pick from active, inactive

Solved entries:
| compound | discrete_label |
| --- | --- |
| CC(C)(C)C(=O)C(Oc1ccc(Cl)cc1)n1ccnc1 (stereo unspecified) | inactive |
| O=C(O)c1ccccc1NCCc1ccccc1 | inactive |
| Fc1ccccc1[C@@H](F)COC1CCC(Nc2ncnc3[nH]ncc23)CC1 (stereo partly specified) | inactive |
| Cc1cc2nc3ccc(=[N+](C)C)cc-3sc2cc1N | active |
| CC[C@H](NC(=O)c1cc(F)ccc1NS(=O)(=O)c1cccc2cccnc12)c1ccccc1 | active |
| Oc1ccc(Nc2ccccc2)cc1 | inactive |
| CCCOCCOCCO | inactive |
| Cc1occc1C(=O)Nc1ccc(C(=O)N2CCC(F)(F)/C(=C\C(=O)N3CCC(N4CCCCC4)CC3)c3ccccc32)cc1 | inactive |

Ask: Outcome logged for `CC1(C)O[C@@H]2C[C@H]3[C@@H]4CCC5=CC(=O)C=C[C@]5(C)[C@H]4[C@@H](O)C[C@]3(C)[C@]2(C(=O)CO)O1` in this assay:
Result: inactive

Ask: Let us now turn to `O=C(c1ccc(O)cc1)c1ccc(Cl)cc1`
Result: inactive

Ask: Let us now turn to CCCCC1C(=O)N(c2ccccc2)N(c2ccc(O)cc2)C1=O (stereo unspecified)
Result: active

###

assay: qHTS RealTime-Glo MT Cell Viability Assay in HEK293 cells - 16 hour (AID 1224872); conditions: RealTime-Glo luminescence; series mostly up to 76.8 µM; further: nearly all actives have a fitted effect of over 50% in size
Results filed as inconclusive are left out. The source made the active and inactive calls. Calls follow the shape of the dose curve; as a rule, active = well fitted cell-killing curve with a large enough effect in the repeat runs; inconclusive = weak or mixed curves, or effect the other way; inactive = flat fitted curve, though single readings scatter.
Form entry, call: pick from active, inactive

Solved entries:
| compound | discrete_label |
| --- | --- |
| O=C(O)c1cccnc1C(=O)O | inactive |
| CCCc1c(OCCCOc2ccc(OCC(=O)O)cc2)ccc(C(C)=O)c1O | inactive |
| CC(CCc1ccc2c(c1)OCO2)NN (stereo unspecified) | inactive |
| CC1(C)O[C@@H]2C[C@H]3[C@@H]4CCC5=CC(=O)C=C[C@]5(C)[C@H]4[C@@H](O)C[C@]3(C)[C@]2(C(=O)CO)O1 | inactive |

Here's the next entry for you.
Ask: Outcome logged for CCOc1cc(N)c(Cl)cc1C(=O)NCC1CN(Cc2ccc(F)cc2)CCO1 (stereo unspecified) in this assay:
Result: active

###

biological target: Estrogen receptor (Homo sapiens); test: qHTS assay to identify small molecule antagonists of the estrogen receptor alpha (ER-alpha) signaling pathway (AID 743069); details: HEK293 ER-alpha-UAS-bla, beta-lactamase ratio, antagonist mode; series mostly up to 69.4 µM
Active and inactive are the calls of the source. The call rests on the fitted dose curve; in most records, active means well fitted curve in the direction sought with a large enough effect in the signal ratio in the repeat runs (not every such curve was filed as active); inconclusive means weak or mixed curves, or effect the other way; inactive means no such curve, though single readings can be large or run the other way; the % refers to the signal ratio.
Form entry, call: pick from Y (active), N (inactive)

Solved entries:
| compound | discrete_label |
| --- | --- |
| CC1CN(c2cc3c(cc2F)c(=O)c(C(=O)O)cn3-c2ccc(F)cc2F)CCN1 (stereo unspecified) | N |
| O=C(CCCN1CCN(c2ccc(F)cc2)CC1)NC1c2ccccc2CSc2ccccc21 (stereo unspecified) | Y |
| CCCCC(CC)C(=O)OCCOCCOCCOCCOC(=O)C(CC)CCCC (stereo unspecified) | N |

Ask: Outcome logged for `O=C(O)Cc1ccc(-c2ccccc2)cc1` in this assay:
Result: N

Ask: Let us now turn to COCCOC(=O)C1=C(C)NC(C)=C(C(=O)OC/C=C/c2ccccc2)C1c1cccc([N+](=O)[O-])c1 (stereo unspecified)
Result: Y

Ask: Let us now turn to `Cc1nc2ccccc2s1`
Result: N

Ask: Let us now turn to `COC(=O)[C@@H]1CC2=CC(=O)CC[C@]2(C)[C@@]23O[C@@H]2C[C@@]2(C)[C@@H](CC[C@@]24CCC(=O)O4)[C@H]13`
Result: N

Ask: Let us now turn to `CCOC(=O)/C=C/C(=O)O`
Result: N

Ask: Let us now turn to C=CC(C)(O)CCCC(C)CCCC(C)CCCC(C)C (stereo unspecified)
Result: N

###

assay: qHTS assay to identify small molecule that activate the aryl hydrocarbon receptor (AhR) signaling pathway - cell viability counter screen (AID 743086); conditions: HepG2-AhR-luc viability, CellTiter-Fluor, 24 h; series mostly up to 70.3 µM; further: nearly all actives have a fitted effect of over 45% in size
Results filed as inconclusive are left out. Calls of active or inactive are those of the source. The call rests on the fitted dose curve; in most records, active means well fitted cell-killing curve with a large enough effect in the repeat runs; inconclusive means weak or mixed curves, or effect the other way; inactive means flat fitted curve, though single readings scatter.
Form entry, call: pick from active, inactive

| smiles_data | discrete_label |
| --- | --- |
| CC1=C(C=O)C(C)(C)CCC1 | inactive |
| COCCOC | inactive |
| CCN(CC)CCNC(=O)c1ccc(NC(C)=O)cc1 | inactive |
| CCCOC(=O)c1ccc(N)cc1 | inactive |
| CCOC(=O)/C=C/C(=O)O | inactive |

Ask: Outcome logged for `CC(=O)Oc1ccc2c(c1)CC[C@@H]1[C@@H]2CC[C@]2(C)[C@@H](O)CC[C@@H]12` in this assay:
Result: inactive

Ask: Let us now turn to `CNC(=S)NC`
Result: inactive

Ask: Let us now turn to `NC(=O)Nc1ccc(Cl)cc1`
Result: inactive

Ask: Let us now turn to `CCCCCCCCCCCC[N+](C)(C)CC(=O)[O-]`
Result: inactive

Ask: Let us now turn to `C(=C\c1ccccc1)/CN1CCN(C(c2ccccc2)c2ccccc2)CC1`
Result: inactive

Ask: Let us now turn to `O=C(O)c1cccnc1C(=O)O`
Result: inactive

Ask: Let us now turn to `CO[C@H]1C=CO[C@@]2(C)Oc3c(C)c(O)c4c(O)c(c5c(c4c3C2=O)=NC2(CCN(CC(C)C)CC2)N=5)NC(=O)/C(C)=C\C=C/[C@H](C)[C@H](O)[C@@H](C)[C@@H](O)[C@@H](C)[C@H](OC(C)=O)[C@@H]1C`
Result: active
